Listing: self-cleavage kobs at 160 uM GlcN6P of selected variants
B1: glmS ribozyme (parent)
chain: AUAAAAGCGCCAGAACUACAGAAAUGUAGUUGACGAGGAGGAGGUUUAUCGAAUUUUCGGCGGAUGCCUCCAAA

Variants of: B1
EXPERIMENT DESCRIPTION: self-cleavage kobs at 160 uM GlcN6P; higher = faster cleavage; RNA array
TEST CONDITIONS: with glucosamine-6-phosphate
This sample holds only a part of the variants without activity.

Recorded self-cleavage kobs at 160 uM GlcN6P, per entry:
U49G A52U
< 1e-05 s⁻¹
U65A U69G
7.34e-05 s⁻¹
G38U G43U U65C
< 1e-05 s⁻¹
G7A A39G
< 1e-05 s⁻¹

self-cleavage kobs at 160 uM GlcN6P in this record for G41U G44C U54C : < 1e-05 s⁻¹

self-cleavage kobs at 160 uM GlcN6P in this record for G40A U45C : 4.64e-05 s⁻¹

self-cleavage kobs at 160 uM GlcN6P in this record for C8U G66C : < 1e-05 s⁻¹

self-cleavage kobs at 160 uM GlcN6P in this record for C11A A39C C70G : < 1e-05 s⁻¹

self-cleavage kobs at 160 uM GlcN6P in this record for "U55A" : 0.0039 s⁻¹

self-cleavage kobs at 160 uM GlcN6P in this record for "A64U" : 1.18e-05 s⁻¹

self-cleavage kobs at 160 uM GlcN6P in this record for A6G A15G : 3.49e-05 s⁻¹

self-cleavage kobs at 160 uM GlcN6P in this record for C10U A20G U55C : < 1e-05 s⁻¹

self-cleavage kobs at 160 uM GlcN6P in this record for G29C U55C : 0.00011 s⁻¹

self-cleavage kobs at 160 uM GlcN6P in this record for G41U G59U : < 1e-05 s⁻¹

self-cleavage kobs at 160 uM GlcN6P in this record for U47A A53U : 0.00098 s⁻¹

self-cleavage kobs at 160 uM GlcN6P in this record for A6G A39G : 6.4e-05 s⁻¹

self-cleavage kobs at 160 uM GlcN6P in this record for G40C G44A A53C : < 1e-05 s⁻¹
